Where these numbers come from: patent US6914045B2

System: Enterococcus sp.
Measurement Description: in vitro antibacterial evaluation, MIC by broth dilution
Type: cell-based
Condition Parameters: broth dilution, 18 hours at 35° C.; strain GC 2691
I'd appreciate it if you could supply MIC Enterococcus faecalis (GC 2691) values for the items below.
One number for each entry, in µg/mL.

>>> recorded_number("CCCCCCN=C1NCC(C(O)C2NC(=O)C(C(O)C3CNC(=N)N3)NC(=O)C(Cc3ccc(OC4OC(CO)C(OC5OC6COC7(OC6C(O)C5O)C5CC6CC(C5)CC7C6)C(O)C4O)cc3)NC(=O)C(C(C)c3ccccc3)NC(=O)CNC(=O)C(CO)NC2=O)N1C1OC(CO)C(O)C(O)C1O (centres unmarked)")
8

Okay, now this compound:
Reported MIC Enterococcus faecalis (GC 2691) ( CC(C)CC(=O)OCC1OC(OC2C(CO)OC(Oc3ccc(CC4NC(=O)C(Cc5ccccc5)NC(=O)CNC(=O)C(CO)NC(=O)C(C(O)C5CNC(=N)N5C5OC(CO)C(O)C(O)C5O)NC(=O)C(C(O)C5CNC(=N)N5)NC4=O)cc3)C(O)C2O)C(O)C(O)C1O (centres unmarked) [Example 283c] ) = 128
